Provenance of the data: patent US4543408A

# Type: physicochemical
# condition_context: solid salt storage, 4320 h
Readings of degradation at 45° C. after 180 days for the listed molecules
recorded_metric: degradation at 45° C. after 180 days (%)

molecule="C[S+](CCC(N)C(=O)[O-])CC1OC(n2cnc3c(N)ncnc32)C(O)C1O (stereo not drawn) [SAM.3H2 SO4.0.7H2 O]" recorded_metric="degradation at 45° C. after 180 days" recorded_result=14
molecule="C[S+](CCC(N)C(=O)[O-])CC1OC(n2cnc3c(N)ncnc32)C(O)C1O (stereo not drawn) [SAM.2HCl.nH2 SO4, n=2]" recorded_metric="degradation at 45° C. after 180 days" recorded_result=14
molecule="C[S+](CCC(N)C(=O)[O-])CC1OC(n2cnc3c(N)ncnc32)C(O)C1O (stereo not drawn) [SAM.nH2 SO4, n=0.5, reference compound]" recorded_metric="degradation at 45° C. after 180 days" recorded_result=100
molecule="C[S+](CCC(N)C(=O)[O-])CC1OC(n2cnc3c(N)ncnc32)C(O)C1O (stereo not drawn) [SAM.4HCl.0.4H2 O]" recorded_metric="degradation at 45° C. after 180 days" recorded_result=14
molecule="C[S+](CCC(N)C(=O)[O-])CC1OC(n2cnc3c(N)ncnc32)C(O)C1O (stereo not drawn) [SAM.1.5H2 SO4.nHCl, n=3]" recorded_metric="degradation at 45° C. after 180 days" recorded_result=14
molecule="C[S+](CCC(N)C(=O)[O-])CC1OC(n2cnc3c(N)ncnc32)C(O)C1O (stereo not drawn) [SAM.2H2 SO4.0.4H2 O]" recorded_metric="degradation at 45° C. after 180 days" recorded_result=14
molecule="C[S+](CCC(N)C(=O)[O-])CC1OC(n2cnc3c(N)ncnc32)C(O)C1O (stereo not drawn) [SAM.nHCl, n=1, reference compound]" recorded_metric="degradation at 45° C. after 180 days" recorded_result=100
molecule="C[S+](CCC(N)C(=O)[O-])CC1OC(n2cnc3c(N)ncnc32)C(O)C1O (stereo not drawn) [SAM.nH2 SO4, n=1.5, reference compound]" recorded_metric="degradation at 45° C. after 180 days" recorded_result=80
molecule="C[S+](CCC(N)C(=O)[O-])CC1OC(n2cnc3c(N)ncnc32)C(O)C1O (stereo not drawn) [SAM.1.5H2 SO4.nHCl, n=2]" recorded_metric="degradation at 45° C. after 180 days" recorded_result=3
molecule="C[S+](CCC(N)C(=O)[O-])CC1OC(n2cnc3c(N)ncnc32)C(O)C1O (stereo not drawn) [SAM.nHCl, n=3, reference compound]" recorded_metric="degradation at 45° C. after 180 days" recorded_result=80
molecule="C[S+](CCC(N)C(=O)[O-])CC1OC(n2cnc3c(N)ncnc32)C(O)C1O (stereo not drawn) [SAM.2.5H2 SO4]" recorded_metric="degradation at 45° C. after 180 days" recorded_result=3
molecule="C[S+](CCC(N)C(=O)[O-])CC1OC(n2cnc3c(N)ncnc32)C(O)C1O (stereo not drawn) [SAM.nHCl, n=2, reference compound]" recorded_metric="degradation at 45° C. after 180 days" recorded_result=100
molecule="C[S+](CCC(N)C(=O)[O-])CC1OC(n2cnc3c(N)ncnc32)C(O)C1O (stereo not drawn) [SAM.1.5H2 SO4.nHCl, n=1]" recorded_metric="degradation at 45° C. after 180 days" recorded_result=14
molecule="C[S+](CCC(N)C(=O)[O-])CC1OC(n2cnc3c(N)ncnc32)C(O)C1O (stereo not drawn) [SAM.nH2 SO4, n=1, reference compound]" recorded_metric="degradation at 45° C. after 180 days" recorded_result=100
molecule="C[S+](CCC(N)C(=O)[O-])CC1OC(n2cnc3c(N)ncnc32)C(O)C1O (stereo not drawn) [SAM.5HCl]" recorded_metric="degradation at 45° C. after 180 days" recorded_result=3

* * *

# Format: physicochemical
# condition_context: solid salt storage, 2880 h
# Method: Stability tests were carried out on the salts prepared in the described manner, by keeping the product in an oven temperature controlled at 45° C. and determining the percentage of residual salt at fixed times. The tests were carried out in comparison with SAM.nHCl salts in which n=1,2 and 3, prepared by the known method (U.S. Pat. No. 2,969,353), and in comparison with SAM.nH2 SO4 salts in which n=0.5,1 and 1.5, also prepared by the known method (West German patent application No. 1,803,978). […]
Readings of degradation at 45° C. after 120 days for the listed compounds
recorded_metric: degradation at 45° C. after 120 days (%)

compound="C[S+](CCC(N)C(=O)[O-])CC1OC(n2cnc3c(N)ncnc32)C(O)C1O (stereo not shown) [SAM.nHCl, n=2, reference compound]" unit_string=% recorded_result=100
compound="C[S+](CCC(N)C(=O)[O-])CC1OC(n2cnc3c(N)ncnc32)C(O)C1O (stereo not shown) [SAM.nH2 SO4, n=1, reference compound]" unit_string=% recorded_result=100
compound="C[S+](CCC(N)C(=O)[O-])CC1OC(n2cnc3c(N)ncnc32)C(O)C1O (stereo not shown) [SAM.5HCl]" unit_string=% recorded_result=1.5
compound="C[S+](CCC(N)C(=O)[O-])CC1OC(n2cnc3c(N)ncnc32)C(O)C1O (stereo not shown) [SAM.2H2 SO4.0.4H2 O]" unit_string=% recorded_result=10
compound="C[S+](CCC(N)C(=O)[O-])CC1OC(n2cnc3c(N)ncnc32)C(O)C1O (stereo not shown) [SAM.nHCl, n=1, reference compound]" unit_string=% recorded_result=100
compound="C[S+](CCC(N)C(=O)[O-])CC1OC(n2cnc3c(N)ncnc32)C(O)C1O (stereo not shown) [SAM.1.5H2 SO4.nHCl, n=2]" unit_string=% recorded_result=1.5
compound="C[S+](CCC(N)C(=O)[O-])CC1OC(n2cnc3c(N)ncnc32)C(O)C1O (stereo not shown) [SAM.nH2 SO4, n=0.5, reference compound]" unit_string=% recorded_result=100
compound="C[S+](CCC(N)C(=O)[O-])CC1OC(n2cnc3c(N)ncnc32)C(O)C1O (stereo not shown) [SAM.3H2 SO4.0.7H2 O]" unit_string=% recorded_result=10
compound="C[S+](CCC(N)C(=O)[O-])CC1OC(n2cnc3c(N)ncnc32)C(O)C1O (stereo not shown) [SAM.6HCl.0.7H2 O]" unit_string=% recorded_result=10
compound="C[S+](CCC(N)C(=O)[O-])CC1OC(n2cnc3c(N)ncnc32)C(O)C1O (stereo not shown) [SAM.2HCl.nH2 SO4, n=0.5, reference compound]" unit_string=% recorded_result=60
compound="C[S+](CCC(N)C(=O)[O-])CC1OC(n2cnc3c(N)ncnc32)C(O)C1O (stereo not shown) [SAM.1.5H2 SO4.nHCl, n=1]" unit_string=% recorded_result=10
compound="C[S+](CCC(N)C(=O)[O-])CC1OC(n2cnc3c(N)ncnc32)C(O)C1O (stereo not shown) [SAM.2HCl.nH2 SO4, n=2]" unit_string=% recorded_result=10
compound="C[S+](CCC(N)C(=O)[O-])CC1OC(n2cnc3c(N)ncnc32)C(O)C1O (stereo not shown) [SAM.2HCl.nH2 SO4, n=1]" unit_string=% recorded_result=10

* * *

# Type: physicochemical
# condition_context: solid salt storage, 8640 h
recorded_metric: degradation at 45° C. after 360 days (%)

compound="C[S+](CCC(N)C(=O)[O-])CC1OC(n2cnc3c(N)ncnc32)C(O)C1O (stereo not shown) [SAM.2.5H2 SO4]" recorded_result=5
compound="C[S+](CCC(N)C(=O)[O-])CC1OC(n2cnc3c(N)ncnc32)C(O)C1O (stereo not shown) [SAM.1.5H2 SO4.nHCl, n=1]" recorded_result=20
compound="C[S+](CCC(N)C(=O)[O-])CC1OC(n2cnc3c(N)ncnc32)C(O)C1O (stereo not shown) [SAM.2H2 SO4.0.4H2 O]" recorded_result=20
compound="C[S+](CCC(N)C(=O)[O-])CC1OC(n2cnc3c(N)ncnc32)C(O)C1O (stereo not shown) [SAM.nHCl, n=1, reference compound]" recorded_result=100
